These measurements were taken from ChEMBL document CHEMBL5033995.

protocol-details: clinical
test-parameters: human, CSF and plasma
endpoint: Kp uu

[[record]]
smiles_string = "COc1cnc(C(=O)Nc2ccc(F)c([C@]34CN(c5ncc(F)cn5)C[C@H]3CSC(N)=N4)c2)cn1"
experimental_value = 1

